system: MS2 coat protein; assay: apparent KD of MS2 coat protein; higher = weaker reporter binding; conditions: Eterna round: R107; input ligand: theophylline 2 mM
MEASURED_METRIC: apparent KD of MS2 coat protein

Query: apparent KD of MS2 coat protein; subject: UAUCCACAUGAGGAUCACCCAUGUAGGGAAGGAGCGGUGAAUGCACCAGGUAGGUCGCCUUGCUGAGGACAGCCGGUGGAUUCGU [Exclusion - Arginine A (Freestyle 26)]
0.023 µM

For the sequence shown here, AUACAUGAGGAUCACCCAUGUUAUAGUGAAGGAGCGACAUUUAGGUCAGGUAGGUCGCACUAUUGAAUUAUUAUCCUUAUUUCUU [JR_ExcArginiA_Sub020] , give the reported apparent KD of MS2 coat protein.
0.0155 µM

Name the reported apparent KD of MS2 coat protein value associated with the sequence UCGGACAUGAGGAUCACCCAUGUAAAUCCUCGAGGACCGGUACGGCCGCCACUCGAACGAGUGGCGCGCGAGUGCGCACUCGCGC [aFa]
0.0358 µM

---

# apparent KD of MS2 coat protein annotations
system: MS2 coat protein; assay: apparent KD of MS2 coat protein; designed switch direction (-1 OFF switch, 1 ON switch): 1; higher = weaker reporter binding; conditions: input ligand: FMN 200 uM
Give the number first and the unit second.

SEQUENCE_CHAIN	MEASURED_METRIC	RESULT
AGCUUUUAAUUAGGAUAUGGUCACAUGAGGAUCACCCAUGUAACGAUGAUAUAAUGUGGUCAAGACUAGAAGGGAUCGCUAACA [SameState NG2 #69] (Eterna round: R96, puzzle: Same State NG 2)	apparent KD of MS2 coat protein	320 nM
UCUCGGCACGCAGGAUAUCCCGCUUCCUGGUGAGGAGAAGGGUGGUCGGGAAAACAUGAGGAUCACCCAUGUAAAAGUAAGAGG [Usdidige] (Eterna round: R96, puzzle: Same State NG 1)	apparent KD of MS2 coat protein	41.6 nM

Proceeding to the next sequence to report its apparent KD of MS2 coat protein.
Item CUGAGCGAUCAAGGAUAUCACGUCGAAUAGACGUGAGAAGGUGAUCAUAACAUGAGGAUCACCCAUGUAUUACAUGAAGCUCAG [SSNG1/2-A1] (Eterna round: R96, puzzle: Same State NG 1) has what recorded apparent KD of MS2 coat protein?
231 nM

---

Quick list: apparent KD of K4 kissing-loop reporter per entry.
test system: K4 kissing-loop RNA reporter; experiment: apparent KD of K4 kissing-loop reporter; higher = weaker reporter binding; settings: Eterna round: R107; input ligand: theophylline 20 uM;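 also: bound reporter read as fluorescence of individual clusters on recovered sequencing chips by microscopy, with normalized cluster intensities fitted with a binding model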
Write the answer as a number in nM, unit excluded.

SEQUENCE_CHAIN	MEASURED_METRIC	QUANTITATIVE_RESULT
GGUAGCAUGGCGGCCGCCACUCGCAUCACAGGCCAUUAACCGCCCUCGUAAAGUGAUGUUUUACAGAGGACCGGGCCAUGCUACC	apparent KD of K4 kissing-loop reporter	323
AACUUGUUUGGAGGAUAUUCUUUAUUCGACAUAACCUUCUAUAAGGUGCAGUGAUGUUGCAAUAUAGGAGAAGGUCGAGUGAGAA [Exclusion FMN B Gf 16]	apparent KD of K4 kissing-loop reporter	219
UGGGAUGUUAAAGGAUAUAGCAAGUGAUAUAAGAAAGUGAGUGAUGUUUAUGUAGGUGAUGAUAUGUUAGAAGGUUAACAAAACG [abcdefgh]	apparent KD of K4 kissing-loop reporter	185
AAAACGCUGGAUGAAUAACAUCUAGCGAAUCGAGGACCGGUACGGCCGCCACUCGGAGCUAAACUGCGAGUGAUGUUCGUAAAAU [Mat - Mod of OpenEnded 3 - D18]	apparent KD of K4 kissing-loop reporter	426
UUUAGGAGCGGUGUUGAUUAGGGAGCGGAAGGAGCGCCGAUUAUGGCAGGUAGGUCGCCGGAAUGUAGUGAUGUUGCAUAGAGGG [ExArgA.V]	apparent KD of K4 kissing-loop reporter	154

Which value of apparent KD of K4 kissing-loop reporter has been reported for GCUCAGGAGUGAUGUUCCUAGUGAUGUUAACGAGGACCGGUACGGCCGCCACUCGAUACGGCCGGACCGUAGGAUAAACUAGAGC [Same State - Tryptophan A (Freestyle 10)] in the records?
351

---

system: MS2 coat protein; assay: apparent KD of MS2 coat protein; higher = weaker reporter binding; conditions: Eterna round: R107; input ligand: none
MEASURED_METRIC: apparent KD of MS2 coat protein (µM)
State the answer as a number, implicitly in µM.

Solved cases below.
SEQUENCE_CHAIN	OUTPUT_UNIT	QUANTITATIVE_RESULT
UCCUCCUCCGCAAGGAGGAGGAGUUGCGAUACCAGCACGGUAACGUGCCCUUGGCAGCGCACAUGAGGAUCACCCAUGUGGUGUU [#1 Exclusion - Theophylline A Attempt #12 (HarryS)]	µM	0.228
GCUAGGUCUACGGCCGCCACUAGACGUGGGUAAGACAUGAGGAUCACCCAUGUACUACGGGCGAAUAGGACCGGGUAGACCUAGC [SSTB NP+V+V2 #14 Same Structure]	µM	0.321
AAUUUAAACGGAAGGAGCGUCACUUAAUAUCAACAUGAGGAUCACCCAUGUACGGGUUGUAGACAGGUAGGUCGCCGUCAUUUGA [#15 Same State - Arginine B]	µM	0.0479

# query: apparent KD of MS2 coat protein of entry UGACGAGGCCUGGAUACCAGCGACAUGAGGAUCACCCAUGUAUGAGGAUCAGCCAUGUUAUGCCCUUGGCAGCCACGAAGGUCAG [WQQMULLIN]
0.0254

I am curious: what apparent KD of MS2 coat protein value has been reported for UCGGGCAUGGCGGCCGCCACUGGUUGGCGUGCGGAUGAGGGAACAUGAGGAUCACCCAUGUUGGUUAGGACCGGGCUUGCGUCGU [knkmullin] ?
0.0165

Endpoint output: apparent KD of MS2 coat protein of ACCGCAUCCGUAUAGGAUGCGGCCCAUGAAGGAGCGUGGGAAACCACAGGUAGGUCGCAUGGAUUACAUGAGGAUCACCCAUGUG [Skyfall] . Value?
0.4

Consider the sequence shown here: UGAAAGUAGGGAAGGAGCGCUACAACAUGAGGAUCACCCAUGUUAUGAGGAUCACCCGUGUGGCAGGUAGGUCGCCCAAAACAUG [#13 Same State - Arginine B] What is its recorded apparent KD of MS2 coat protein?
0.0439

Dear colleague, I am looking for the recorded apparent KD of MS2 coat protein of the following sequence: GGCCCGGACUUGGAAUGGGUGUUUCCUUCACGAGGACCGGUACGGCCGCCACUCGAAGACAUGAGGAUCACCCAUGUAGUCGACC [Soleti]
0.0217

What does the data say about its apparent KD of MS2 coat protein? Entry: ACAUGAGGAUCACCCAUGUAAUAAGGAGAAGGAGCGCGUAAGGACGCAGGUAGGUCGCUCGUGGUCCGGCCGCAAGGCCGGACCA [#1 Same State - Arginine A Attempt #8 (HarryS)]
0.0112

Can you share its apparent KD of MS2 coat protein? I mean this sequence: UGUAUGUGAUCUGAUACCAGUGACACGAAAGUGAAUCGCUUGAGGAUCACCCAAGUAAAACACCCUUGGCAGCAGAUCGCAUACU [Full moving switch bubble 1]
0.0156

What value of measured apparent KD of MS2 coat protein is listed for AAACAUGAGGAUCACCCAUGUUCUCGUGUCCGAGGACCGGUACGGCCGCCACUCGGUUCUCGCGAGGAUGGUCAAAGACUAUCCA [Omei Trp A SS B v6] ?
0.0451

Dear colleague, I am looking for the recorded apparent KD of MS2 coat protein of the following sequence: GCUGUUGCGGUGAGGUAUCCGGCUGUGGAAGGAGCGCGGAAUGCCGCAGGUAGGUCGCCACAUGAGGAUCACCCAUGUCGAUAUA [Atzalama]
0.0272

apparent KD of MS2 coat protein lookup needed for GACAUGAGGAUCACCCAUGUACCGCGAGAAGGAGCGCGGAUAAACGCAGGUAGGUCGCUCGUGGGCUCACAUUCAAUUGUAAGCU [Digece] , thanks.
0.0392

// query apparent KD of MS2 coat protein value for entry UUGGUACAUGAGGAUCACCCAUGUACUGAAGGAGCGGGACGAAUCUCAGGUAGGUCGCAGACAUGAGGAUCACCCAUGUAUGGCU [Exclusion Arginine A GF 17]
0.0127

apparent KD of MS2 coat protein lookup needed for CACAUGAGGAUCACCCAUGUCUGAACUGAAGGAGCGCUAAACAAGGCAGGUAGGUCGCGGAAUCCCGGGUGCAUAUGCACCCGGG [9.aA] , thanks.
0.0239

Data request, read-out apparent KD of MS2 coat protein, for GGUCGCCUACAUGGGUAGGCGAUUUUGGAAGGAGCGAGCGAGAGCUCAGGUAGGUCGCCAGCACAUGAGGAUCACCCAUGUUUUU [SSArg-A #25 Weakened 1st state]
0.0161

State the recorded apparent KD of MS2 coat protein for this entry: AGAUUUAUUUUGACCGGGCUCAUUCCUGAAGGAGCGCAGAACAAUGCAGGUAGGUCGCAGGACAUGAGGAUCACCCAUGUCAAGC [Isaes]
0.0207

Any idea what its apparent KD of MS2 coat protein is? The sequence is GGUGGCGGGACUGAUACCAGCCACCACCGAUAGACCACAUGAGGAUCACCCAUGUUGGGUGGCCCUUGGCAGCAGUCUUGCGUCG [#1 Same State - Theophylline B Attempt #16 (HarryS)]
0.149

What does the data say about its apparent KD of MS2 coat protein? Entry: GCACCAGGUACGGAUACCAGCUGCCACAGUUACAUGAGGAUCACCCAUGUGAAAACGUGUAGCCCUUGGCAGCUGUACCUGGUGC [SSThB NP+V+V2 #8 Same Structure]
0.459

Could you share which apparent KD of MS2 coat protein value was measured for GACCUUAUCUGAAGGAGCGAGGUAAAUAGGGUUGAGCAUACAUGAGGAUCACCCAUGUGGCCUCAGGUAGGUCGCAGAUAAGACA [Exclusion Arginine B GF29] ?
0.352

Can you look up the measured apparent KD of MS2 coat protein of ACACGAAGCUGAAGGAGCGUGGUAUAAAUUUUUACAUGAGGAUCACCCAUGUUUCAUCAAUCACAGGUAGGUCGCAGAUGCGUGA [JR_SSArginiB_Sub014] for me?
0.0141

Sample AGAGUCAGACAAAAGUCUGGCUCAGCCGAAGGAGCGUCCGAAAGGACAGGUAGGUCGCGGUUCCAUGAGGAUCACCCAUGGUCCU [ArgAS 28 #OpenEnded #AlternativeMS2] — what was its apparent KD of MS2 coat protein?
0.085

Which apparent KD of MS2 coat protein reading was recorded for the sequence UGUAUGUGAUCUGAUACCAGAGUGAAUAAACGCGAAAGCGCCUGAGGAUCACCCUGGUAACUCCCUUGGCAGCAGAUCGCAUACU ?
0.569

Cited source for all entries: the supplement of paper PMC9170038
